Data provenance is patent US20120270929A1.

# Test system: murine TTC39A mRNA
# assay_notes: Dose-dependent antisense inhibition of murine TTC39A in b.END cells
# Format: cell-based, mouse
# stated_conditions: 35.0 nM, ~16 h
Oligonucleotides are written 5' to 3', each unit as a sugar letter and its base; * is a phosphorothioate linkage, no mark a phosphodiester; rarer units and linkages stand in square brackets, end groups in braces. Plain capitals give the bases only. e = 2'-O-(2-methoxyethyl) (MOE); [5mC] = 5-methylcytosine; d = 2'-deoxy (DNA)
Each entry below lists one item and its recorded percent inhibition of TTC39A mRNA value.
Field: numeric (%). Do not append units.

Q: Hi! What's the reported percent inhibition of TTC39A mRNA for TCCTTGCTCAGCAGGTCGGC (eT*e[5mC]*e[5mC]*eT*eT*dG*d[5mC]*dT*d[5mC]*dA*dG*d[5mC]*dA*dG*dG*eT*e[5mC]*eG*eG*e[5mC]; antisense) [ISIS 474366] on murine TTC39A mRNA?
Ans: 45

Q: Please answer likewise for CACCTGGGTTTGAGGTAGCT (e[5mC]*eA*e[5mC]*e[5mC]*eT*dG*dG*dG*dT*dT*dT*dG*dA*dG*dG*eT*eA*eG*e[5mC]*eT; antisense) [ISIS 474498]
Ans: 55

Q: Consider next the sequence GCATGTAGAGAACTTCCAGG (eG*e[5mC]*eA*eT*eG*dT*dA*dG*dA*dG*dA*dA*d[5mC]*dT*dT*e[5mC]*e[5mC]*eA*eG*eG; antisense) [ISIS 474382] in the same way.
Ans: 41

Q: Next record, please: GCCTCAGAATCCTGGTGGGA (eG*e[5mC]*e[5mC]*eT*e[5mC]*dA*dG*dA*dA*dT*d[5mC]*d[5mC]*dT*dG*dG*eT*eG*eG*eG*eA; antisense) [ISIS 474437]
Ans: 36

Q: Proceed to TCGGTGCCTCTGACACAGCG (eT*e[5mC]*eG*eG*eT*dG*d[5mC]*d[5mC]*dT*d[5mC]*dT*dG*dA*d[5mC]*dA*e[5mC]*eA*eG*e[5mC]*eG; antisense) [ISIS 474474]
Ans: 56

Q: Item: TCCATGGAGTAGTTCTTGTA (eT*e[5mC]*e[5mC]*eA*eT*dG*dG*dA*dG*dT*dA*dG*dT*dT*d[5mC]*eT*eT*eG*eT*eA; antisense) [ISIS 474452]
Ans: 46

Q: Do the same for CCGCACTTTGATGCCGCCCT (e[5mC]*e[5mC]*eG*e[5mC]*eA*d[5mC]*dT*dT*dT*dG*dA*dT*dG*d[5mC]*d[5mC]*eG*e[5mC]*e[5mC]*e[5mC]*eT; antisense) [ISIS 474435] please
Ans: 8
